This collection of values is drawn from ChEMBL document CHEMBL3507680.

# ASSAY_PROCEDURE: Human HepG2 cell viability assay in 384 well format
# Assay type: toxicity, cell-based
# Design: dose 125 nL, time 70.5 hour; concentration not given beside the values
# DETAILS: HepG2 cells, read-out: Inhibition
QUANTITY_NAME: cytotoxicity at 70.5 h (%)
Give the quantity in %, number only.

Look over these answered cases.
- COMPOUND: "O=C(NCC1(C(=O)O)CCC1)c1nnn(-c2ccc(F)cc2)c1C1CC1"
  NUMERIC_READOUT: 11.7
- COMPOUND: "Cc1ccc(CNC(=O)CN2C=Nc3ccccc3S2(=O)=O)s1"
  NUMERIC_READOUT: -11.3
- COMPOUND: "CC(C)(C)c1nnc(CN2CCn3c(nnc3C3CC3)C2)o1"
  NUMERIC_READOUT: -0.488
- COMPOUND: "NC(=O)C(NC(=O)c1cc(Br)c[nH]1)c1ccccc1 (centres undefined)"
  NUMERIC_READOUT: 10.8
- COMPOUND: "COc1cccc(-c2ncc(CN3CC[C@H]4CC[C@@H](C3)N4)s2)c1"
  NUMERIC_READOUT: 9.35
- COMPOUND: "COCCNC(=O)Cn1cc(NC(=O)c2ccc(C(C)(C)C)cc2)cn1"
  NUMERIC_READOUT: 33.3
- COMPOUND: "CCn1cc(S(=O)(=O)N2CCCCCC2c2cc(C)no2)cn1 (centres undefined)"
  NUMERIC_READOUT: 0.308
- COMPOUND: "O=C(CCS(=O)(=O)c1ccccc1)N1CCCC(n2cccn2)C1 (centres undefined)"
  NUMERIC_READOUT: -2.57
- COMPOUND: "CC(C)c1cc(COCCCC(=O)O)no1"
  NUMERIC_READOUT: -2.63
- COMPOUND: "CCOc1nnc(CN2CCN(CCOC)C(CC)C2)s1 (centres undefined)"
  NUMERIC_READOUT: 12.8

Request: Item under review: Cn1nc(COc2cccnc2)c2c1CCN(c1cnccn1)C2 . Reported cytotoxicity at 70.5 h?
Response: -14.9

Request: Item under review: Cc1ccccc1C(=O)NCc1ccnc(N(C)C)c1 . Reported cytotoxicity at 70.5 h?
Response: 0.094

Request: Item under review: O=C(c1cnc(Nc2ccccc2)nc1)N1CCS(=O)(=O)CC1 . Reported cytotoxicity at 70.5 h?
Response: -8.85

Request: Item under review: O=c1n(Cc2ncccn2)nc(C2CCNCC2)n1-c1ccccc1 . Reported cytotoxicity at 70.5 h?
Response: -2.01

Request: Item under review: CCOC(=O)c1nnc2ccccc2c1N1CCN(C(C)C)CC1 . Reported cytotoxicity at 70.5 h?
Response: -4.21

Request: Item under review: Cn1ccnc1CN1CCC2(COCCN(S(=O)(=O)C3CC3)C2)C1 (centres undefined) . Reported cytotoxicity at 70.5 h?
Response: -10.6

Request: Item under review: CCc1nnsc1C(=O)NCc1nnc2n1CCCCC2 . Reported cytotoxicity at 70.5 h?
Response: -3.94

Request: Item under review: CCc1cc(N(C)CCc2noc(C)n2)nc(N2CCOCC2)n1 . Reported cytotoxicity at 70.5 h?
Response: -7.76

Request: Item under review: CC(NC(=O)N1CCC1)c1ccc(S(C)(=O)=O)cc1 (centres undefined) . Reported cytotoxicity at 70.5 h?
Response: -5.1

Request: Item under review: Cc1nc(CN2C[C@@H]3CCCO[C@@H]3[C@H](NC(=O)CC3CC3)C2)cs1 . Reported cytotoxicity at 70.5 h?
Response: -0.515
